Tested on: HepG2
protocol.notes: drug sensitivity score (DSS) for viability; higher = more toxic; extreme values may be limits of the assay
assay.setup: 72 h
quantity.measured: drug sensitivity score
The response must contain the number and no unit.

Reference set (8 entries):
molecule	drug sensitivity score
CC(C)(N)CC12CC3CC(CC(C3)C1)C2 [somantadine]	1.9
COc1cc2nccc(Oc3ccc(NC(=O)Nc4ccc(F)cc4F)c(F)c3)c2cc1OC [KI-8751]	0
Cc1ccc2c(-c3ccccc3)nc(=O)n(C(C)C)c2c1 [proquazone]	0
Cn1c(=O)c2c(ncn2CC2OCCO2)n(C)c1=O [doxofylline]	1.3
O=c1cc[nH]c(=O)[nH]1 [uracil]	0
O=C[C@H](O)[C@@H](O)[C@H](O)CO [xylose]	0
O=Nc1ccc(O)c2ncccc12 [NSC-3852]	6.9
C=C1CC[C@H](O)C/C1=C/C=C1\CCC[C@]2(C)[C@@H]([C@H](C)CCCC(C)C)CC[C@@H]12 [cholecalciferol]	0

Entry CC(C)(C)c1cc(NC(=O)Nc2ccc(-c3cn4c(n3)sc3cc(OCCN5CCOCC5)ccc34)cc2)no1 [quizartinib] ; drug sensitivity score = 0

Reported drug sensitivity score ( COc1c2occc2c(OC)c2c(=O)cc(C)oc12 [khellin] ) = 0.3

Noted for CNCC[C@H](Oc1cccc2ccccc12)c1cccs1 [duloxetine] : its drug sensitivity score reads 0

Short answer for CC(C)C[C@H](NC(=O)[C@H](CCc1ccccc1)NC(=O)CN1CCOCC1)C(=O)N[C@@H](Cc1ccccc1)C(=O)N[C@@H](CC(C)C)C(=O)[C@@]1(C)CO1 [carfilzomib] : drug sensitivity score was 32.8

Consider NS(=O)(=O)c1cc(C(=O)O)c(NCc2ccco2)cc1Cl [furosemide] . Its measured drug sensitivity score is 0

For CC(=O)[C@@]1(O)CC[C@H]2[C@@H]3C[C@H](C)C4=CC(=O)CC[C@]4(C)[C@H]3CC[C@@]21C [medroxyprogesterone] the molecule record lists drug sensitivity score as 0.2

Notebook: CC1(C)CCC[C@]2(C)[C@H]3CC(=O)O[C@]3(C)CC[C@@H]12 [Sclareolide (Norambreinolide)] , drug sensitivity score read as 0

Measured drug sensitivity score of COc1cc(/C=C/C(=O)CC(=O)/C=C/c2ccc(O)c(OC)c2)ccc1O [curcumin] : 2.2

So, CN1CCCN(C(c2ccccc2)c2ccc(Cl)cc2)CC1 (stereo not drawn) [homochlorcyclizine] ? Its drug sensitivity score was 0.4

Lab note: Cc1ccc(/C=C2/C(=O)C3(C)CCC2C3(C)C)cc1 (stereo not drawn) [3-(4-methylbenzylidene)camphor] gave drug sensitivity score of 0

# credit: the supplement of paper PMC13380429
